measured.target: 5-hydroxytryptamine receptor 1A (Homo sapiens, UniProt P08908); also: assay procedure not described here
Sequence (P08908 whole entry): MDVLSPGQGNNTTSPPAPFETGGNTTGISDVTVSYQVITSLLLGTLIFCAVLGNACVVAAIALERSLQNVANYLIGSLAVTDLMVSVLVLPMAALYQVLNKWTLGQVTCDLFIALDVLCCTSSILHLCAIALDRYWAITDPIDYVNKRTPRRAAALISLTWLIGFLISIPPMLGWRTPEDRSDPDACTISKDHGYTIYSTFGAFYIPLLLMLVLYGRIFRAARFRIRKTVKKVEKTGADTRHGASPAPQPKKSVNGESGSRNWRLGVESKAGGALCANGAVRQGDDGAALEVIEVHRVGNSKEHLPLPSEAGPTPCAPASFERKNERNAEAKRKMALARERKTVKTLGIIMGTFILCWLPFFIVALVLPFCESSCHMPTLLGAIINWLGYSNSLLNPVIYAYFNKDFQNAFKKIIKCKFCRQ
Assay type: functional, cell-based
property: AC50

Sample records with AC50:
1) CC(=O)NS(=O)(=O)c1ccc(N)cc1 [SULFACETAMIDE] :: > 10 µM
2) CO/N=C(\C(=O)N[C@@H]1C(=O)N2C(C(=O)OCOC(=O)C(C)(C)C)=C(C)CS[C@H]12)c1csc(N)n1 :: > 30 µM
3) CC(C)(C(=O)c1cccnc1)c1cccnc1 [METYRAPONE] :: > 10 µM

Return reported AC50 values for all items listed beneath this line.
1. O=C(C[S+]([O-])C(c1ccccc1)c1ccccc1)NO (stereo not drawn)
2. C[C@H]1C[C@@H]2[C@H]([C@@H](O)C[C@@]3(C)[C@H]2CC[C@]3(O)C(=O)COC(=O)CCC(=O)O)[C@@]2(C)C=CC(=O)C=C12 [METHYLPREDNISOLONE HEMISUCCINATE]
3. CO/N=C(\C(=O)N[C@@H]1C(=O)N2C(C(=O)[O-])=C(C[N+]3(C)CCCC3)CS[C@H]12)c1csc(N)n1
4. C[N+](C)(C)CC(=O)O [BETAINE]
5. CN1CCCC(n2nc(Cc3ccc(Cl)cc3)c3ccccc3c2=O)CC1 (stereo not drawn) [AZELASTINE]

Response line:
1: > 30 µM; 2: > 30 µM; 3: > 300 µM; 4: > 30 µM; 5: > 30 µM

====

measured.target: UniProtKB P21918
Sequence (P21918 whole entry): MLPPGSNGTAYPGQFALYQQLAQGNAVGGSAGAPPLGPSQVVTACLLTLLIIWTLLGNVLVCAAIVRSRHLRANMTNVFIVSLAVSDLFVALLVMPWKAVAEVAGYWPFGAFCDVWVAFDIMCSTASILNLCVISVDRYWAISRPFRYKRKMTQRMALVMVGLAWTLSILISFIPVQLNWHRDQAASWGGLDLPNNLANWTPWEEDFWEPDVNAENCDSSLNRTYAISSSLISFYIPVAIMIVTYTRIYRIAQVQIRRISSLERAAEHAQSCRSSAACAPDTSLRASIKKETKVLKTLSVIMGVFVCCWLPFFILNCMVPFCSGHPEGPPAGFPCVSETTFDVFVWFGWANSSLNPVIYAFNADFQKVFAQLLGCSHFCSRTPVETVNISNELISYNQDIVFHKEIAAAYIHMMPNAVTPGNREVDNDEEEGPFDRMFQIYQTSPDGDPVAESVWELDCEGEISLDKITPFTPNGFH
Please respond with reported AC50 for every item in the list.

1. NC(=O)C[S+]([O-])C(c1ccccc1)c1ccccc1 (stereo not given) [MODAFINIL] :: > 10 µM
2. CCOC(=O)[C@H](CCc1ccccc1)N[C@@H](C)C(=O)N1CCC[C@H]1C(=O)O :: > 10 µM

I have 3 molecules here; please give me AC50 for each one.
1. CN(C)CCCN1c2ccccc2Sc2ccccc21 [PROMAZINE]
2. Cc1ccc(-c2nc3ccc(C)cn3c2CC(=O)N(C)C)cc1 [ZOLPIDEM]
3. NC(N)=Nc1nc(CSCCC(N)=NS(N)(=O)=O)cs1 [FAMOTIDINE]

Response line:
["5.78 µM", "> 10 µM", "> 10 µM"]

====

measured.target: Gamma-aminobutyric acid receptor subunit alpha-1 (Rattus norvegicus, UniProt P62813); also: assay procedure not described here
Sequence (P62813 whole entry): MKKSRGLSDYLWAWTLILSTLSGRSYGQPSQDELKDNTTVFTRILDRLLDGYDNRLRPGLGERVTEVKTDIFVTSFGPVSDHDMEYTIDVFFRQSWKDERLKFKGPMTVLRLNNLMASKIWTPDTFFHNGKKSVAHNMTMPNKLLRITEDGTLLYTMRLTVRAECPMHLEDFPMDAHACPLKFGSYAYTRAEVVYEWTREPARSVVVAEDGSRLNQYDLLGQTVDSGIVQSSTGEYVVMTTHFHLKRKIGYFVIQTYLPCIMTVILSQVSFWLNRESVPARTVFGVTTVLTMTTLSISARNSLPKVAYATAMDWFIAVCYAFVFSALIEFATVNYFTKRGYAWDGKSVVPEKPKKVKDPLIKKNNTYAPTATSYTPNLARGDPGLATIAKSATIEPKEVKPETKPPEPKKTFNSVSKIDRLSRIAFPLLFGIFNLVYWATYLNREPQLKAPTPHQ
Type: functional
property: AC50

These solved cases illustrate the format of a correct answer.
1. CN(C)C(=O)OC1N=C(c2ccccc2)c2cc(Cl)ccc2N(C)C1=O (centres undefined) [CAMAZEPAM] :: 0.96 µM
2. CC(C)(C(=O)c1cccnc1)c1cccnc1 [METYRAPONE] :: > 10 µM
3. CC(C)Cc1ccc(CC(=O)O)cc1 [IBUFENAC] :: > 30 µM
4. CN(C)CCCN1c2ccccc2Sc2ccccc21 [PROMAZINE] :: > 10 µM
5. Cc1nc2ccc(CN(C)c3ccc(C(=O)N[C@@H](CCC(=O)O)C(=O)O)s3)cc2c(=O)[nH]1 [RALTITREXED] :: > 30 µM

For every item in the list below, what is its measured AC50?
1. COc1cc(Nc2c(C#N)cnc3cc(OCCCN4CCN(C)CC4)c(OC)cc23)c(Cl)cc1Cl [BOSUTINIB]
2. CCCC(=O)N1CCCN(c2nc(N)c3cc(OC)c(OC)cc3n2)CC1 [BUNAZOSIN]
3. CCCC(CCC)C(=O)O[C@H]1C[C@H]2CC[C@@H](C1)[N+]2(C)C [ANISOTROPINE]
4. COc1ccc2c(c1)c(CC(=O)OCC(=O)O)c(C)n2C(=O)c1ccc(Cl)cc1 [ACEMETACIN]

Response line:
["> 10 µM", "> 30 µM", "> 30 µM", "> 30 µM"]
